# Test system: HCC-366
# Method description: relative viability (nuclei count vs DMSO), 5 days (fraction); higher = more cells survive
# Measurement conditions: first compound 0.4 µM
Response field label: string, one of met (relative viability strictly below 0.4) or not met.

Some solved entries appear below for comparison.
Lookup: Is 0.4 strictly greater than the molecule's reported relative viability? molecule: C[C@@H]1CN(CC(=O)Nc2ccc3c(c2)Cc2cccc(-c4cc(=O)cc(N5CCOCC5)o4)c2S3)C[C@H](C)O1 + C[C@@H](Oc1cc(-c2cnn(C3CCNCC3)c2)cnc1N)c1c(Cl)ccc(F)c1Cl [Crizotinib] (partner 1 µM)
Found: not met

Lookup: Say whether its relative viability is strictly beneath 0.4. Entry: C[C@@H]1CN(CC(=O)Nc2ccc3c(c2)Cc2cccc(-c4cc(=O)cc(N5CCOCC5)o4)c2S3)C[C@H](C)O1 + O=C(CCCCCCC(=O)Nc1ccccc1)NO [Vorinostat] (partner 1 µM)
Found: met

Lookup: Hi there! Is relative viability for COc1cc(N2CCC(C(N)=O)CC2)ccc1Nc1nc(N)c(Cl)c(Nc2ccccc2S(=O)(=O)C(C)C)n1 [HG-5-88-01] + CS(=O)(=O)N1CCN(Cc2cc3nc(-c4cccc5[nH]ncc45)nc(N4CCOCC4)c3s2)CC1 [Pictilisib] (partner 1 µM) below 0.4, do you know?
Found: met

Lookup: Determine whether this molecule shows relative viability lower than 0.4 (ties excluded): C[C@@H]1CN(CC(=O)Nc2ccc3c(c2)Cc2cccc(-c4cc(=O)cc(N5CCOCC5)o4)c2S3)C[C@H](C)O1 + O=C(c1cc(Cc2n[nH]c(=O)c3ccccc23)ccc1F)N1CCN(C(=O)C2CC2)CC1 [Olaparib] (partner 8 µM)
Found: not met

Lookup: For this molecule, is relative viability lower than 0.4? Clc1ccc(Nc2nnc(Cc3ccncc3)c3ccccc23)cc1 [Vatalanib] + Nc1nc2[nH]cc(CCc3ccc(C(=O)N[C@@H](CCC(=O)O)C(=O)O)cc3)c2c(=O)[nH]1 [Pemetrexed] (partner 0.2 µM)
Found: met

Lookup: Strictly below 0.4: is that where relative viability of C[C@@H]1CN(CC(=O)Nc2ccc3c(c2)Cc2cccc(-c4cc(=O)cc(N5CCOCC5)o4)c2S3)C[C@H](C)O1 + COc1cccc2cc(-c3nc([C@H]4CC[C@H](C(=O)O)CC4)n4ncnc(N)c34)[nH]c12 [OSI-027] (partner 0.5 µM) sits?
Found: not met

***
Lookup: Given COc1cc(N2CCC(C(N)=O)CC2)ccc1Nc1nc(N)c(Cl)c(Nc2ccccc2S(=O)(=O)C(C)C)n1 [HG-5-88-01] + COc1cc2c(Oc3ccc(NC(=O)C4(C(=O)Nc5ccc(F)cc5)CC4)cc3F)ccnc2cc1OCCCN1CCOCC1 [Foretinib] (partner 0.25 µM) , is recorded relative viability strictly lower than 0.4?
Found: not met

---

# System: NCI-H358
# Method description: relative viability (nuclei count vs DMSO), 5 days (fraction); higher = more cells survive
# Measurement conditions: first compound 1.265 µM
relative viability values by entry
Reply with the value as a number alone.

Would you please look over these solved cases?
Lookup: Request the reported relative viability associated with COc1cc(N2CCC(C(N)=O)CC2)ccc1Nc1nc(N)c(Cl)c(Nc2ccccc2S(=O)(=O)C(C)C)n1 [HG-5-88-01] + C[C@]1(O)C[C@@H](c2nc(-c3ccc4ccc(-c5ccccc5)nc4c3)c3c(N)nccn32)C1 [Linsitinib] (partner 1 µM)
Found: 0.484

Lookup: Which relative viability is listed for Clc1ccc(Nc2nnc(Cc3ccncc3)c3ccccc23)cc1 [Vatalanib] + Nc1nc2[nH]cc(CCc3ccc(C(=O)N[C@@H](CCC(=O)O)C(=O)O)cc3)c2c(=O)[nH]1 [Pemetrexed] (partner 0.2 µM) ?
Found: 0.181

Lookup: Which relative viability is listed for Clc1ccc(Nc2nnc(Cc3ccncc3)c3ccccc23)cc1 [Vatalanib] + O=C(c1cc(Cc2n[nH]c(=O)c3ccccc23)ccc1F)N1CCN(C(=O)C2CC2)CC1 [Olaparib] (partner 8 µM) ?
Found: 0.769

Lookup: Quick one: relative viability of COc1cc(N2CCC(C(N)=O)CC2)ccc1Nc1nc(N)c(Cl)c(Nc2ccccc2S(=O)(=O)C(C)C)n1 [HG-5-88-01] + CCNC(=O)c1noc(-c2cc(C(C)C)c(O)cc2O)c1-c1ccc(CN2CCOCC2)cc1 [Luminespib] (partner 0.01 µM) ?
Found: 0.099

New cases:
Lookup: Recorded relative viability for COc1cc(N2CCC(C(N)=O)CC2)ccc1Nc1nc(N)c(Cl)c(Nc2ccccc2S(=O)(=O)C(C)C)n1 [HG-5-88-01] + COc1cc2c(Oc3ccc(NC(=O)C4(C(=O)Nc5ccc(F)cc5)CC4)cc3F)ccnc2cc1OCCCN1CCOCC1 [Foretinib] (partner 0.25 µM) , please?
Found: 0.224
